subject of test: T1, EsCas13d, nuclease-dead (Eubacterium siraeum, UniProt B0MS50, R295A;H300A;R849A;H854A)
T1 sequence: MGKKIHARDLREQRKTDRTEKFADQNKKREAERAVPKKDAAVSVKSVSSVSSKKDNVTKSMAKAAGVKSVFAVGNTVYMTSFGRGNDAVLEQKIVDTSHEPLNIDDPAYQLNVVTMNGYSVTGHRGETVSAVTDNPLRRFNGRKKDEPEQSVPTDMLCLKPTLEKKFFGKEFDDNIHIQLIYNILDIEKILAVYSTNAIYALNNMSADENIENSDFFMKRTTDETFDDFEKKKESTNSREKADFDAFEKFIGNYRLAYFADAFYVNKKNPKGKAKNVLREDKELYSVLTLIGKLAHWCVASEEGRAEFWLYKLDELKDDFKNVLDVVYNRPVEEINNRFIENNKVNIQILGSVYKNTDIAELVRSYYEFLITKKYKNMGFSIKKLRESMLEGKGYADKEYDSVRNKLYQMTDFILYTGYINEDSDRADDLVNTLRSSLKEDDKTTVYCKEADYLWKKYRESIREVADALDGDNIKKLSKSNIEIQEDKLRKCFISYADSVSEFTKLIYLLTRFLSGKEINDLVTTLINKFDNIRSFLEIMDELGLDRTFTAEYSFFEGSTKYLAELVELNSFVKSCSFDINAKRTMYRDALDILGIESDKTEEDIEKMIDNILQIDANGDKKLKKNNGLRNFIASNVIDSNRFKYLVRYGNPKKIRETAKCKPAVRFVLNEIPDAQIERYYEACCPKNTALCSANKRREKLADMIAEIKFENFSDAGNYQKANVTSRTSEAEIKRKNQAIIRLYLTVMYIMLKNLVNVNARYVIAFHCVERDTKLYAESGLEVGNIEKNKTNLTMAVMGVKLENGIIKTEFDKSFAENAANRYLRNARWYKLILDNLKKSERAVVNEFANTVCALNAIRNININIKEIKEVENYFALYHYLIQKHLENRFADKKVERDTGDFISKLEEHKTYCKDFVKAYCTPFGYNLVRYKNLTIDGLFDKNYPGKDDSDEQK
assay details: crRNA (strand 1, pre-loaded); Mg2+; 40 mM Tris-HCl pH 7.5, 150 mM NaCl, 6 mM MgCl2, 1 mM DTT, 0.1% Tween-20, 0.2 mg/ml BSA; 25 C; 10 min per concentration, then washed
stated conditions: tags: His6-TwinStrep-SUMO cleaved; N-terminal SNAP kept (SNAP-Surface 488); label: 3' end held by stalled T7 RNA polymerase
outcome measure: Kd (nM)
# value in nM; strip the unit string

Example binders with recorded Kd:
1. target 2 MT 5'PFS GCA 3'PFS ACU (mixed) RNA 1: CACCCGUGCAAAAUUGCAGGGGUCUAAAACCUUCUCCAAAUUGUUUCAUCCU RNA 2: GGGAAUGGAUCCACAUCUACGAAUUCGCAAGGAUGAAACAAUUUGGAGAAGACUAGAUCGGAAGAGCACACGU ... 13.2
2. target 1 G5A (mixed) RNA 1: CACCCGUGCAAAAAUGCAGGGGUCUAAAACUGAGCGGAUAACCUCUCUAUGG RNA 2: GGGAAUGGAUCCACAUCUACGAAUUCGUACCAUAGAGAGGUUAUCCACUCACCGAGAUCGGAAGAGCACACGU ... 51
3. target 1 U3C,C4U (mixed) RNA 1: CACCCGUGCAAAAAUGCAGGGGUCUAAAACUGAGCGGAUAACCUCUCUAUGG RNA 2: GGGAAUGGAUCCACAUCUACGAAUUCGUACCAUAGAGAGGUUAUCCGUCCACCGAGAUCGGAAGAGCACACGU ... 49

Q: Form field: reported Kd of target 1 insG 3' of 3,insU 3' of 2 (mixed) RNA 1: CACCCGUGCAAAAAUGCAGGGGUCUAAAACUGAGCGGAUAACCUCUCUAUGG RNA 2: GGGAAUGGAUCCACAUCUACGAAUUCGUACCAUAGAGAGGUUAUCCGCUGCUACCGAGAUCGGAAGAGCACACGU
Result: 10.1

Attribution: paper PMC10786891
